Entry source: paper PMC8277129

Tested on: juvenile rainbow trout (Oncorhynchus mykiss)
Assay: Bioconcentration (BCF) experiment based on OECD 305, aqueous exposure to surfactant mixtures
Format: in vivo
Conditions: pH 6.2 (MIX1pH); 14 d exposure, 28 d depuration; whole fish
Reported Endpoint: uptake rate constant (kU) (L kg^–1 h^–1)
Hi! Could you send only the number? It should be in L kg^–1 h^–1, unit omitted.

Ask: Please provide the recorded uptake rate constant (kU) for CCCCCCCCCCN(C)C , tested on juvenile rainbow trout (Oncorhynchus mykiss).
Reply: 1.02

Ask: For CCCCCCCCCCCCCCCCN then?
Reply: 7.8

Ask: For CCCCCCCCCCCCN then?
Reply: 0.36

Ask: For CCCCCCCCCCCCCN(C)C then?
Reply: 4.7

Ask: For CCCCCCCCCCCCCC[N+](C)(C)C then?
Reply: 0.121

----------
Consider the following molecules; for each one, report its Log DMLW,C (membrane-water partition coefficient of the charged form).
Assay: Membrane-water partition coefficient of the charged form (DMLW,C)
Type: physicochemical
Conditions: extrapolated from Timmer and Droge (2017)
Response field accepts a number only; no unit should be typed.

Ask: # query: Log DMLW,C (membrane-water partition coefficient of the charged form) of entry CCCCCCCCCCCCCCCCNC
Reply: 7.71

Ask: For CCCCCCCCCCCCCN(C)C then?
Reply: 5.88

Ask: For CCCCCCCCCCCCCCN(C)C then?
Reply: 6.46

Ask: For CCCCCCCCCCCCCN then?
Reply: 6.16

Ask: For CCCCCCCCCCCCCCCCN then?
Reply: 7.90

----------
Test system: gills of rainbow trout
Test: Mechanistic one-box mass balance model of gill uptake and elimination
Details: pH 7.6 (MIX1, MIX2); from measured kU and modeled αW, αB, DFW
Reported Endpoint: predicted gill elimination rate constant eq 1 (k2) (h^–1)
Hi! Could you send only the number? It should be in h^–1, unit omitted.

Ask: # query: predicted gill elimination rate constant eq 1 (k2) of entry CCCCCCCCCCCCCCCCN
Reply: 0.00003

Ask: For CCCCCCCCCN(C)C then?
Reply: 0.27

Ask: For CCCCCCCCCCCCN then?
Reply: 0.0009

Ask: For CCCCCCCCCCN(C)C then?
Reply: 0.37

Ask: For CCCCCCCCCCCCCN then?
Reply: 0.0006

Ask: For CCCCCCCCCCCCCCCCNC then?
Reply: 0.00007

Ask: For CCCCCCCCCCCCCN(C)C then?
Reply: 0.010

Ask: For CCCCCCCCCCCCCCN(C)C then?
Reply: 0.004

Ask: For CCCCCCCCCCCCNC then?
Reply: 0.004

----------
System: juvenile rainbow trout (Oncorhynchus mykiss)
Experiment: Bioconcentration (BCF) experiment based on OECD 305, aqueous exposure to surfactant mixtures
Assay type: in vivo
Settings: pH 7.6 (MIX1, MIX2); whole fish
// assign 1 if BCF (kU/kT) falls strictly below 800 L kg^–1, else -1 (ties count as -1)

Ask: Strictly below 800 L kg^–1 in BCF (kU/kT)? CCCCCCCCCCCCCC[N+](C)(C)C
Reply: 1

Ask: For CCCCCCCCCCCCCCCCN then?
Reply: -1

Ask: For CCCCCCCCCCCCCN(C)C then?
Reply: -1

Ask: For CCCCCCCCCCCCNC then?
Reply: -1

Ask: For CCCCCCCCCCCCCCN(C)C then?
Reply: -1

Ask: For CCCCCCCCCCCCN then?
Reply: 1

Ask: For CCCCCCCCCCCCCCCCNC then?
Reply: -1

Ask: For CCCCCCCCCCN(C)C then?
Reply: 1

Ask: For CCCCCCCCCN then?
Reply: 1

Ask: For CCCCCCCCCN(C)C then?
Reply: 1

Ask: For CCCCCCCCCCCCCN then?
Reply: -1

----------
System: gills of rainbow trout
Assay: Mechanistic one-box mass balance model of gill uptake and elimination
Conditions: pH 6.2 (MIX1pH); from measured kU and modeled αW, αB, DFW
Reported Endpoint: predicted gill elimination rate constant eq 1 (k2) (h^–1)
Hi! Could you send only the number? It should be in h^–1, unit omitted.

Ask: # query: predicted gill elimination rate constant eq 1 (k2) of entry CCCCCCCCCCCCCN(C)C
Reply: 0.039

Ask: For CCCCCCCCCCCCCCCCN then?
Reply: 0.00023

Ask: For CCCCCCCCCCCCN then?
Reply: 0.0022

Ask: For CCCCCCCCCCN(C)C then?
Reply: 0.53

----------
Test system: gills of rainbow trout
Experiment: Mechanistic one-box mass balance model of gill uptake and elimination
Conditions: pH 6.2 (MIX1pH)
Consider the following compounds; for each one, report its k2/kT.

Ask: # query: k2/kT of entry CCCCCCCCCCN(C)C
Reply: 4.1

Ask: For CCCCCCCCCCCCN then?
Reply: 0.04

Ask: For CCCCCCCCCCCCCCCCN then?
Reply: 0.09

Ask: For CCCCCCCCCCCCCN(C)C then?
Reply: 2.8

----------
System: juvenile rainbow trout (Oncorhynchus mykiss)
Assay: Bioconcentration (BCF) experiment based on OECD 305, aqueous exposure to surfactant mixtures
Assay type: in vivo
Conditions: pH 7.6 (MIX1, MIX2); whole fish
Consider the following compounds; for each one, report its measured total elimination rate constant (kT).
Hi! Could you send only the number? It should be in h^–1, unit omitted.

Ask: # query: measured total elimination rate constant (kT) of entry CCCCCCCCCN(C)C
Reply: 0.059

Ask: For CCCCCCCCCCCCNC then?
Reply: 0.0066

Ask: For CCCCCCCCCCCCCCN(C)C then?
Reply: 0.0034

Ask: For CCCCCCCCCCCCCN(C)C then?
Reply: 0.0049

Ask: For CCCCCCCCCCCCCCCCNC then?
Reply: 0.0027

Ask: For CCCCCCCCCCN(C)C then?
Reply: 0.074

Ask: For CCCCCCCCCCCCCC[N+](C)(C)C then?
Reply: 0.0020

----------
System: juvenile rainbow trout (Oncorhynchus mykiss)
Test: Bioconcentration (BCF) experiment based on OECD 305, aqueous exposure to surfactant mixtures
Type: in vivo
Settings: pH 7.6 (MIX1, MIX2); 14 d exposure, 28 d depuration; whole fish; 10 °C
Consider the following compounds; for each one, report its uptake rate constant (kU).
Hi! Could you send only the number? It should be in L kg^–1 h^–1, unit omitted.

Ask: # query: uptake rate constant (kU) of entry CCCCCCCCCCCCCC[N+](C)(C)C
Reply: 0.104

Ask: For CCCCCCCCCCCCN then?
Reply: 2.0

Ask: For CCCCCCCCCCCCNC then?
Reply: 5.5

Ask: For CCCCCCCCCCCCCCCCN then?
Reply: 15.3

Ask: For CCCCCCCCCCN(C)C then?
Reply: 9.9

----------
Consider the following compounds; for each one, report its k el.
Experiment: Bioconcentration (BCF) experiment based on OECD 305, aqueous exposure to surfactant mixtures
Format: in vivo, Oncorhynchus mykiss
Conditions: pH 7.6 (MIX1, MIX2); whole fish; read-out: measured total elimination rate constant (kT) (converted)
Hi! Could you send only the number? It should be in s⁻¹, unit omitted.

Ask: # query: k el of entry CCCCCCCCCCCCCCCCN
Reply: 6.94e-07

Ask: For CCCCCCCCCCCCCN then?
Reply: 9.44e-07

Ask: For CCCCCCCCCCCCN then?
Reply: 2.25e-06

----------
System: juvenile rainbow trout (Oncorhynchus mykiss)
Experiment: Bioconcentration (BCF) experiment based on OECD 305, aqueous exposure to surfactant mixtures
Type: in vivo
Conditions: pH 7.6 (MIX1, MIX2); 14 d exposure, 28 d depuration; whole fish; 10 °C
Consider the following molecules; for each one, report its uptake rate constant (kU).
Hi! Could you send only the number? It should be in L kg^–1 h^–1, unit omitted.

Ask: # query: uptake rate constant (kU) of entry CCCCCCCCCCCCCN
Reply: 4.8

Ask: For CCCCCCCCCCCCCCCCNC then?
Reply: 22

Ask: For CCCCCCCCCCCCCCN(C)C then?
Reply: 27

Ask: For CCCCCCCCCCCCCN(C)C then?
Reply: 15.9

Ask: For CCCCCCCCCN(C)C then?
Reply: 2.0

----------
Test system: juvenile rainbow trout (Oncorhynchus mykiss)
Assay: Bioconcentration (BCF) experiment based on OECD 305, aqueous exposure to surfactant mixtures
Assay type: in vivo
Conditions: pH 6.2 (MIX1pH); whole fish
Marks after values point to notes of the source that are not given here.
Reported Endpoint: BCF (kU/kT)

Ask: # query: BCF (kU/kT) of entry CCCCCCCCCCCCN [P12, Dodecylamine]
Reply: 7.1 L kg^–1

Ask: For CCCCCCCCCCCCCCCCN [P16, Hexadecylamine] then?
Reply: 3000 L kg^–1

Ask: For CCCCCCCCCCN(C)C [T10, N,N-dimethyldecylamine] then?
Reply: 7.9 L kg^–1

Ask: For CCCCCCCCCN [P9, Nonylamine] then?
Reply: 0.1 ^b L kg^–1

Ask: For CCCCCCCCCCCCCC[N+](C)(C)C [Q14, N,N,N-trimethyl-1-tetradecylammonium] then?
Reply: 55 L kg^–1

Ask: For CCCCCCCCCCCCCN(C)C [T13, N,N-dimethyltridecylamine] then?
Reply: 340 L kg^–1
